// data source = patent US20100310591A1

- target_desc: murine class II MHC allele E^k on CH27 B cell lymphoma antigen presenting cells (murine)
- protocol_description: cell-based or functional assay
Non-standard residues stand in square brackets, D forms with d. Ava = NCCCCC(=O)O
readout_label: T cell proliferative response (HT-2 [3H]TdR uptake) at 3 nM

Ac-LRMK[Ava]IAYLKQATAK-NH2 (SMILES CC[C@H](C)[C@H](NC(=O)CCCCNC(=O)[C@H](CCCCN)NC(=O)[C@H](CCSC)NC(=O)[C@H](CCCNC(=N)N)NC(=O)[C@H](CC(C)C)NC(C)=O)C(=O)N[C@@H](C)C(=O)N[C@@H](Cc1ccc(O)cc1)C(=O)N[C@@H](CC(C)C)C(=O)N[C@@H](CCCCN)C(=O)N[C@@H](CCC(N)=O)C(=O)N[C@@H](C)C(=O)N[C@H](C(=O)N[C@@H](C)C(=O)N[C@@H](CCCCN)C(N)=O)[C@@H](C)O) [Hybrid 2, Ac-LRMK-ava-IAYLKQATAK-NH2] :: 30.1 thousands of cpm
Ac-LRMK[Ava][Ava]IAYLKQATAK-NH2 (SMILES CC[C@H](C)[C@H](NC(=O)CCCCNC(=O)CCCCNC(=O)[C@H](CCCCN)NC(=O)[C@H](CCSC)NC(=O)[C@H](CCCNC(=N)N)NC(=O)[C@H](CC(C)C)NC(C)=O)C(=O)N[C@@H](C)C(=O)N[C@@H](Cc1ccc(O)cc1)C(=O)N[C@@H](CC(C)C)C(=O)N[C@@H](CCCCN)C(=O)N[C@@H](CCC(N)=O)C(=O)N[C@@H](C)C(=O)N[C@H](C(=O)N[C@@H](C)C(=O)N[C@@H](CCCCN)C(N)=O)[C@@H](C)O) [Hybrid 3, Ac-LRMK-ava-ava-IAYLKQATAK-NH2] :: 27.9 thousands of cpm
Ac-LRMKLPKSAKPVSKIAYLKQATAK-NH2 [Hybrid 6, Ac-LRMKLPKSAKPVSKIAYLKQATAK-NH2] :: 31.4 thousands of cpm

-- ask Which T cell proliferative response (HT-2 [3H]TdR uptake) at 3 nM is listed for Ac-LRMKLPKSAKPIAYLKQATAK-NH2 [Hybrid 5, Ac-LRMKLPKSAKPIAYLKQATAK-NH2] ?
-- reply 31.4 thousands of cpm

-- ask Which T cell proliferative response (HT-2 [3H]TdR uptake) at 3 nM is listed for Ac-LRMKLPKSIAYLKQATAK-NH2 [Hybrid 4, Ac-LRMKLPKSIAYLKQATAK-NH2] ?
-- reply 19 thousands of cpm

-- ask Which T cell proliferative response (HT-2 [3H]TdR uptake) at 3 nM is listed for Ac-IAYLKQATAK-NH2 [Hybrid 1, Ac-IAYLKQATAK-NH2 (antigenic epitope PGCC 95-104 without Ii-Key)] ?
-- reply 0.4 thousands of cpm
